Each recorded value in this set is attributed to patent US9249129B2.

This section presents molecules with their documented pIC50 values.
# Measured target: kinases (kinome) (Homo sapiens)
# Construct: determined in kinobeads assays with mass spectrometry detection of kinases as described previously; endogenous in cells
# Assay text: kinobeads assay with mass spectrometry detection of kinases (kinase selectivity profile)
# Experimental conditions: CDK10 (CMGC), IPI00014873
pIC50: −log10 of the molar value.
Reported metric: pIC50

[[record]]
smiles_input = "C[C@H]1COCCN1c1nc(-c2ccc(NC(=O)NC3CC3)cc2)cc(-c2ccccc2S(C)(=O)=O)n1"
experimental_result = "< 5.00"

[[record]]
smiles_input = "C[C@H]1COCCN1c1cc(-c2ccccn2)nc(-c2ccc(NC(=O)NCCO)cc2)n1"
experimental_result = "< 5.00"

[[record]]
smiles_input = "C[C@H]1COCCN1c1nc(-c2ccc(NC(=O)NC3CC3)cc2)cc(-c2cc(F)ccc2S(C)(=O)=O)n1"
experimental_result = "< 5.00"


---

This section presents molecules with their documented pIC50 values.
# Measured target: kinases (kinome) (Homo sapiens)
# Construct: determined in kinobeads assays with mass spectrometry detection of kinases as described previously; endogenous in cells
# Assay text: kinobeads assay with mass spectrometry detection of kinases (kinase selectivity profile)
# Experimental conditions: MYT1 (Other), IPI00909627
pIC50: −log10 of the molar value.
Reported metric: pIC50

[[record]]
smiles_input = "C[C@H]1COCCN1c1cc(-c2ccccn2)nc(-c2ccc(NC(=O)NCCO)cc2)n1"
reported_metric = "pIC50"
experimental_result = "< 5.00"

[[record]]
smiles_input = "C[C@H]1COCCN1c1nc(-c2ccc(NC(=O)NC3CC3)cc2)cc(-c2cc(F)ccc2S(C)(=O)=O)n1"
reported_metric = "pIC50"
experimental_result = "< 5.00"

[[record]]
smiles_input = "C[C@H]1COCCN1c1nc(-c2ccc(NC(=O)NC3CC3)cc2)cc(-c2cccnc2S(C)(=O)=O)n1"
reported_metric = "pIC50"
experimental_result = "< 5.00"

[[record]]
smiles_input = "C[C@H]1COCCN1c1nc(-c2ccc(NC(=O)NC3CC3)cc2)cc(-c2ccccc2S(C)(=O)=O)n1"
reported_metric = "pIC50"
experimental_result = "< 5.00"

[[record]]
smiles_input = "C[C@H]1COCCN1c1nc(-c2ccc(NC(=O)N[C@H]3CCC[C@@H]3O)cc2)cc(-c2cc(F)ccc2S(C)(=O)=O)n1"
reported_metric = "pIC50"
experimental_result = "< 5.00"

[[record]]
smiles_input = "CCNC(=O)Nc1ccc(-c2cc(-c3ccccc3C#N)nc(N3CCOC[C@@H]3C)n2)cc1"
reported_metric = "pIC50"
experimental_result = "< 5.00"

[[record]]
smiles_input = "C[C@H]1COCCN1c1cc(-c2ccccc2S(C)(=O)=O)nc(-c2ccc(NC(=O)NC3CC3)cc2)n1"
reported_metric = "pIC50"
experimental_result = "< 5.00"


---

# Measured target: kinases (kinome) (Homo sapiens, UniProt Q9UQM7)
# Construct: determined in kinobeads assays with mass spectrometry detection of kinases as described previously; endogenous in cells
# Sequence (Q9UQM7 whole entry): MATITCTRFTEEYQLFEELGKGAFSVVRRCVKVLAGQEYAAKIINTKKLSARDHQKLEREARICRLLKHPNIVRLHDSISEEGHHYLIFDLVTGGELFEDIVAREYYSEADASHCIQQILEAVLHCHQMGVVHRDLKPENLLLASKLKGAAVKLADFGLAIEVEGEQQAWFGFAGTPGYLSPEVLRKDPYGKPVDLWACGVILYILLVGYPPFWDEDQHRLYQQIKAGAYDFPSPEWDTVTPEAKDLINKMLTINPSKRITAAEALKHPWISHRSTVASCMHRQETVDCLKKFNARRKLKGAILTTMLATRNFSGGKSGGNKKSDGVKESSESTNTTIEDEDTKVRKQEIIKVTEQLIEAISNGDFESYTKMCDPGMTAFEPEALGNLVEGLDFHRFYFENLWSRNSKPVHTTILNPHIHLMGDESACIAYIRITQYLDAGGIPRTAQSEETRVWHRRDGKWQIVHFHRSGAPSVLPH
# Assay text: kinobeads assay with mass spectrometry detection of kinases (kinase selectivity profile)
# Experimental conditions: CaMK2a (CAMK), IPI00550056
Reported metric: IC50

[[record]]
smiles_input = "CCNC(=O)Nc1ccc(-c2cc(-c3ccccc3C#N)nc(N3CCOC[C@@H]3C)n2)cc1"
experimental_result = "> 10 µM"


---

This section presents compounds with their documented pIC50 values.
# Measured target: kinases (kinome) (Homo sapiens)
# Construct: determined in kinobeads assays with mass spectrometry detection of kinases as described previously; endogenous in cells
# Sequence (Q04771 21-509): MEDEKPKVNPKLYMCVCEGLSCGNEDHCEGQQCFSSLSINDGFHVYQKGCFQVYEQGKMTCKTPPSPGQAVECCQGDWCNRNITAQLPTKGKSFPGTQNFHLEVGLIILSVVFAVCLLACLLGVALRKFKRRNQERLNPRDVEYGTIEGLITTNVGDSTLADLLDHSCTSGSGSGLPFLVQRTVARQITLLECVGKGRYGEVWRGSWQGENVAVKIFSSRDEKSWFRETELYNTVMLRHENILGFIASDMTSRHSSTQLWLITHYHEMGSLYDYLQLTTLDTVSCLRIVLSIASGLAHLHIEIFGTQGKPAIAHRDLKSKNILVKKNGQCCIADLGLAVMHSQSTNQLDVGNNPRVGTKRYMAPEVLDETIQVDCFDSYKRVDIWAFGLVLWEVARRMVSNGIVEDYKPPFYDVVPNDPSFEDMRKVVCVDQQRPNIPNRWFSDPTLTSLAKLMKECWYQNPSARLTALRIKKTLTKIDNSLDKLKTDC
# Assay text: kinobeads assay with mass spectrometry detection of kinases (kinase selectivity profile)
# Experimental conditions: ALK2 (TKL), IPI00029219
pIC50: −log10 of the molar value.
Reported metric: pIC50

[[record]]
smiles_input = "CCNC(=O)Nc1ccc(-c2cc(-c3ccccc3C#N)nc(N3CCOC[C@@H]3C)n2)cc1"
reported_metric = "pIC50"
experimental_result = "< 5.00"

[[record]]
smiles_input = "C[C@H]1COCCN1c1nc(-c2ccc(NC(=O)N[C@H]3CCC[C@@H]3O)cc2)cc(-c2cc(F)ccc2S(C)(=O)=O)n1"
reported_metric = "pIC50"
experimental_result = "< 5.00"

[[record]]
smiles_input = "C[C@H]1COCCN1c1nc(-c2ccc(NC(=O)NC3CC3)cc2)cc(-c2cc(F)ccc2S(C)(=O)=O)n1"
reported_metric = "pIC50"
experimental_result = "< 5.00"


---

# Measured target: kinases (kinome) (Homo sapiens, UniProt P51955)
# Construct: determined in kinobeads assays with mass spectrometry detection of kinases as described previously; endogenous in cells
# Sequence (P51955 1-445): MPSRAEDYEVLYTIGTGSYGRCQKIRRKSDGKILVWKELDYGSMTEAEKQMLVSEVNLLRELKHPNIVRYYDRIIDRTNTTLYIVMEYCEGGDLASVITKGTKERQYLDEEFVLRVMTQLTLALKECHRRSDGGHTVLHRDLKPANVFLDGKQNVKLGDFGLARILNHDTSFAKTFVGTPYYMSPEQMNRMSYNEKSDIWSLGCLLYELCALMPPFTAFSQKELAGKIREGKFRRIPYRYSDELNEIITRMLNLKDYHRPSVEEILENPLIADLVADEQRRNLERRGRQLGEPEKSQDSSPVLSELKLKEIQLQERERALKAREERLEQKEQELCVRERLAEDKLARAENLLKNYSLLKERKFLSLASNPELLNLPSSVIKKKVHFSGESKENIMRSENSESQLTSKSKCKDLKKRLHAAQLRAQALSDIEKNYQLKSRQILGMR
# Assay text: kinobeads assay with mass spectrometry detection of kinases (kinase selectivity profile)
# Experimental conditions: NEK2 (Other), IPI00021331
pIC50: −log10 of the molar value.
Reported metric: pIC50

[[record]]
smiles_input = "CCNC(=O)Nc1ccc(-c2cc(-c3ccccc3C#N)nc(N3CCOC[C@@H]3C)n2)cc1"
experimental_result = "< 5.00"

[[record]]
smiles_input = "C[C@H]1COCCN1c1nc(-c2ccc(NC(=O)NC3CC3)cc2)cc(-c2cc(F)ccc2S(C)(=O)=O)n1"
experimental_result = "< 5.00"

[[record]]
smiles_input = "C[C@H]1COCCN1c1nc(-c2ccc(NC(=O)NC3CC3)cc2)cc(-c2cccnc2S(C)(=O)=O)n1"
experimental_result = "< 5.00"

[[record]]
smiles_input = "C[C@H]1COCCN1c1cc(-c2ccccn2)nc(-c2ccc(NC(=O)NCCO)cc2)n1"
experimental_result = "< 5.00"

[[record]]
smiles_input = "C[C@H]1COCCN1c1nc(-c2ccc(NC(=O)N[C@H]3CCC[C@@H]3O)cc2)cc(-c2cc(F)ccc2S(C)(=O)=O)n1"
experimental_result = "< 5.00"

[[record]]
smiles_input = "C[C@H]1COCCN1c1nc(-c2ccc(NC(=O)NC3CC3)cc2)cc(-c2ccccc2S(C)(=O)=O)n1"
experimental_result = "< 5.00"

[[record]]
smiles_input = "C[C@H]1COCCN1c1cc(-c2ccccc2S(C)(=O)=O)nc(-c2ccc(NC(=O)NC3CC3)cc2)n1"
experimental_result = "< 5.00"


---

# Measured target: kinases (kinome) (Homo sapiens)
# Construct: determined in kinobeads assays with mass spectrometry detection of kinases as described previously; endogenous in cells
# Assay text: kinobeads assay with mass spectrometry detection of kinases (kinase selectivity profile)
# Experimental conditions: PKN2 (AGC), IPI00002804
Reported metric: IC50

[[record]]
smiles_input = "C[C@H]1COCCN1c1cc(-c2ccccn2)nc(-c2ccc(NC(=O)NCCO)cc2)n1"
measured_target = "kinases (kinome) (Homo sapiens)"
reported_metric = "IC50"
experimental_result = "> 10 µM"

[[record]]
smiles_input = "C[C@H]1COCCN1c1nc(-c2ccc(NC(=O)NC3CC3)cc2)cc(-c2cc(F)ccc2S(C)(=O)=O)n1"
measured_target = "kinases (kinome) (Homo sapiens)"
reported_metric = "IC50"
experimental_result = "> 10 µM"

